Target: Corticotropin-releasing factor receptor 2/Corticotropin-releasing factor-binding protein (Homo sapiens, UniProt P24387+Q13324)
Sequence (Q13324 whole entry): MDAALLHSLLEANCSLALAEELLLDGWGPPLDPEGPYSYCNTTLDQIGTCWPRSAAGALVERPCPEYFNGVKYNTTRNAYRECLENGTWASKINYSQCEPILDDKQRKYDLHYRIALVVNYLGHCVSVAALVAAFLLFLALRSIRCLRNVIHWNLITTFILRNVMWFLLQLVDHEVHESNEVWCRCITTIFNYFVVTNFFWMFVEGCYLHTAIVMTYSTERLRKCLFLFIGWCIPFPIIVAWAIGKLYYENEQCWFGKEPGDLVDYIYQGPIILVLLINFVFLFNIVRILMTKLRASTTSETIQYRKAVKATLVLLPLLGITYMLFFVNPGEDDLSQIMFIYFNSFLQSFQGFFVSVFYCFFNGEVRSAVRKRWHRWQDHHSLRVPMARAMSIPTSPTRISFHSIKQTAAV
Sequence (P24387 whole entry): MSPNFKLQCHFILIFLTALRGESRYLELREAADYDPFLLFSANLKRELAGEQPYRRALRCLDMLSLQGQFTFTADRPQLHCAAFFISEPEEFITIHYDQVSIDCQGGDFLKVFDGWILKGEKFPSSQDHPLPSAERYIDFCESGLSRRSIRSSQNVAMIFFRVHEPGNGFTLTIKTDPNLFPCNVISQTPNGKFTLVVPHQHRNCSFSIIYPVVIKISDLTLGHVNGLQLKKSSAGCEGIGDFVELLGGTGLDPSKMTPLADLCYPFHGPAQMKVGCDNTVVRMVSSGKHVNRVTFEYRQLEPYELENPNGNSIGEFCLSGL
Experiment: Dose Response confirmation of uHTS hits for small molecule antagonists of the CRF-binding protein and CRF-R2 receptor complex.
Format: functional
Settings: read-out: IC50_Mean
Activity calls are given as the source filed them.
The reply should name one outcome from label 1 = active, label 0 = inactive

Ask: So what was the verdict on `Cc1ccccc1NC(=O)c1ccc(-c2ccc(Cl)cc2Cl)o1` in this test?
Reply: label 0

Ask: So what was the verdict on `COc1cccc(NC(=O)COC(=O)c2ccccc2C(=O)N2CCN(c3ccccc3)CC2)c1` in this test?
Reply: label 0

Ask: So what was the verdict on COC(=O)c1nc2n(n1)C(c1ccc([N+](=O)[O-])cc1)C(C(=O)Nc1ccc(Cl)cc1)=C(C)N2 (stereo not given) in this test?
Reply: label 1

Ask: So what was the verdict on `COc1ccc(NC(=S)NCc2cccnc2)cc1` in this test?
Reply: label 1

Ask: So what was the verdict on `CCOC(=O)c1cc(S(=O)(=O)Nc2ccc(F)cc2F)cn1C` in this test?
Reply: label 0

Ask: So what was the verdict on `Cc1nc(-c2c(C(F)(F)F)noc2-c2ccc(O)cc2O)cs1` in this test?
Reply: label 1

Ask: So what was the verdict on `CNc1nc(Cl)nc(Nc2ccccc2)n1` in this test?
Reply: label 0

Ask: So what was the verdict on `Cc1c(C(=O)NCc2cccnc2)oc2ccccc12` in this test?
Reply: label 0

Ask: So what was the verdict on `CN(C)CCCNC(=O)c1ccccc1Oc1ccccc1` in this test?
Reply: label 0

Ask: So what was the verdict on C/C=C/C=C/C(=O)OC(C)C(=O)Nc1cc([N+](=O)[O-])ccc1OC (stereo not given) in this test?
Reply: label 0

---

Biological target: Microphthalmia-associated transcription factor (Homo sapiens, UniProt O75030)
Sequence (O75030 whole entry): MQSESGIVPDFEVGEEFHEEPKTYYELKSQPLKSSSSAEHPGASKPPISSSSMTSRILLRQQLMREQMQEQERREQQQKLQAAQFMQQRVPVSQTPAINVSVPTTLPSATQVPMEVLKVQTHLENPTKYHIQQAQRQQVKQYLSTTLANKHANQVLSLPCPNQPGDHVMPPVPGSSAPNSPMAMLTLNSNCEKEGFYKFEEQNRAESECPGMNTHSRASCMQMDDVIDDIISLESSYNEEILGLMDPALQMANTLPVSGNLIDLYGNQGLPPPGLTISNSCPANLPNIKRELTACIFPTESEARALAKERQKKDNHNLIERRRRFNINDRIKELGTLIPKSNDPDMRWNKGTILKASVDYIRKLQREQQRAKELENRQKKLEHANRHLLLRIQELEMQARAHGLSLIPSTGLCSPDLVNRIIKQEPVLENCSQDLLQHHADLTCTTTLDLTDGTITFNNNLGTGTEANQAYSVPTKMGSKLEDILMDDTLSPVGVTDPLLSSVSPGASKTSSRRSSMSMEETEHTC
Assay: TRPM1 promoter luciferase signal decrease, dose response, MITF inhibitor project, cell-based, SK-MEL-5, cherry-picked, set 3 (AID 493073);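 further: SK-MEL-5 melanoma cells with luciferase driven by the MITF target TRPM1 promoter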
Type: functional
Activity calls are given as the source filed them.
measured_property: AC50

response.value for C=CCSC(=S)NC1CCS(=O)(=O)C1 (stereo unspecified) (field: AC50) = 20.7 µM (active)

response.value for `CCOC(=O)c1ccc(NC(=O)c2ccc(C)c(S(=O)(=O)N3CCOCC3)c2)cc1` (field: AC50) = 5.36 µM (active)

response.value for `COc1cccc2sc(N3CCN(C(=O)c4ccc([N+](=O)[O-])o4)CC3)nc12` (field: AC50) = 7.03 µM (active)

response.value for O=C(c1ccccc1)C(CN1CCCC1)c1ccccc1 (stereo unspecified) (field: AC50) = 5.33 µM (active)

response.value for `COc1ccc(Cn2c(-c3ccc(C)cc3)c[n+]3ccccc23)cc1` (field: AC50) = 2.89 µM (active)

response.value for CCC(=O)NC(c1ccccc1OC)c1ccc2cccnc2c1O (stereo unspecified) (field: AC50) = 6.7 µM (active)

---

Molecular target: UniProt:P55212
Sequence (P55212 24-179 limits assumed): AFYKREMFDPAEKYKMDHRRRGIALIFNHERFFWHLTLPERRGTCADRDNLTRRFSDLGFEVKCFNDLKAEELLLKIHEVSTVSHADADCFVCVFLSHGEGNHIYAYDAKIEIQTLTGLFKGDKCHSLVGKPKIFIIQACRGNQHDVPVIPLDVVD
Sequence (P55212 194-293 limits assumed): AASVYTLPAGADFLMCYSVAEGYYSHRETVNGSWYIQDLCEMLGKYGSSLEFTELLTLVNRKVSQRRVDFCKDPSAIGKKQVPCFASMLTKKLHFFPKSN
Assay: human caspase-6 inhibitors, dose response, biochemical, VEID-R110 fluorescence, cherry-pick (AID 720632)
Active and inactive are the calls of the source.
Field: AC50. Provide a value for each of the compounds that follow.

Observed AC50, UniProt:P55212, `O=C(O)c1ccccc1NS(=O)(=O)c1ccc(NN=Cc2cccc(Cl)c2)c([N+](=O)[O-])c1` : 24.5 µM (active)

Observed AC50, UniProt:P55212, `O=C(COC(=O)c1ccc([N+](=O)[O-])o1)NCc1ccc(F)cc1` : 40.7 µM (active)

Observed AC50, UniProt:P55212, `CC(C)N(C(=O)Nc1ccc2nsnc2c1)C(C)C` : 5.6 µM (active)

Observed AC50, UniProt:P55212, `COc1ccc(NC(=O)CN(C)C(=O)c2cccc(-n3cccc3)c2)cc1` : 4.5 µM (active)

Observed AC50, UniProt:P55212, `Oc1cc(O)cc(C=Cc2ccc(O)c(O)c2)c1` : 1.2 µM (active)

Observed AC50, UniProt:P55212, `Cc1cc(/C=N/Nc2ccc([N+](=O)[O-])cn2)c(C)n1-c1cccc(C(=O)O)c1` : 14.4 µM (active)

Observed AC50, UniProt:P55212, `O=C(NCc1ccccc1Cl)c1ccc2[nH]cnc2c1` : 28.1 µM (active)
